All figures here come from patent US7244738B2.

test readout: melting point

Worked examples follow.
>>> result("COc1cc2[nH]c(N(C)Cc3cccc(C(C)N(C)C(=O)N(C)C)c3)nc(=O)c2c(OC)c1OC (centres unmarked) [Example 293]")
"68 to 70 °C"
>>> result("COc1cc2[nH]c(N(C)Cc3ccc(N4CCCC4=O)cc3)nc(=O)c2c(OC)c1OC [Example 12]")
"195.9 to 197.4 °C"
>>> result("COc1cc2[nH]c(NCc3cccc(/N=C(\\C)N(C)C)c3)nc(=O)c2c(C)c1OC [Example 72]")
"173 to 175 °C"
>>> result("CONC(=O)Nc1cccc(CN(C)c2nc(=O)c3c(OC)c(OC)c(OC)cc3[nH]2)c1 [Example 181]")
"165 to 167 °C"
>>> result("COc1cc2[nH]c(N(C)Cc3ccc(C4=NCCN4C)cc3)nc(=O)c2c(C)c1OC [Example 237]")
"179 to 181 °C"

Reported melting point for COCC/C(=N\c1cccc(CN(C)c2nc(=O)c3c(OC)c(OC)c(OC)cc3[nH]2)c1)N(C)C.Cl was 145 °C

Summary for this compound, COc1cc2[nH]c(N(C)Cc3cccc(/N=C(/C)N(C)C)c3)nc(=O)c2c(OC)c1OC [Example 197] : melting point is 199 to 201 °C

Per the record, C=CCN1Cc2ccc(CN(C)c3nc(=O)c4c(OC)c(OC)c(OC)cc4[nH]3)cc2C1 [Example 13] has melting point of 133.7 to 136.6 °C

* * *

Structures can show the parent of a compound that is named as a salt.
test readout: melting point

Previously resolved entries follow.
>>> result("COCCNCc1ccc(CN(C)c2nc(=O)c3c(C)c(OC)c(OC)cc3[nH]2)cc1 (as salt: HCl)")
"265 to 268 °C"
>>> result("COc1cc2[nH]c(N(C)Cc3cccc(C4CCN(C)CC4)c3)nc(=O)c2c(OC)c1OC.Cl")
"181.5 to 189.4 °C"
>>> result("COc1cc2nc(N(C)Cc3cccc(C4CCN(C)CC4)c3)[nH]c(=O)c2c(C)c1OC")
"155.7 to 158 °C"

Here is another compound to look at.
Please fill in: melting point reported for COCCOc1cccc(CN(C)c2nc(=O)c3c(C)c(OC)c(OC)cc3[nH]2)c1 [Example 160] = 176.6 to 177.9 °C

* * *

test readout: melting point

>>> result("COc1cc2[nH]c(N(C)Cc3cccc(N4C(=O)CCC4=O)c3)nc(=O)c2c(C)c1OC [Example 259]")
"198.6 to 199.8 °C"
>>> result("COc1cc2[nH]c(N(C)CCc3cccc(/N=C(\\C)N(C)C)c3)nc(=O)c2cc1OC [Example 91]")
"135 to 138.1 °C"
>>> result("CNC(=O)c1cccc(CN(C)c2nc(=O)c3c(C)c(OC)c(OC)cc3[nH]2)c1 [Example 136]")
"243.3 to 245.1 °C"
>>> result("COc1cc2[nH]c(N(C)Cc3cccc(NC4=NCCC4)c3)nc(=O)c2c(OC)c1OC [Example G-43]")
"207 to 209 °C"
>>> result("COc1cc2[nH]c(N(C)Cc3cccc(N4CCN(C)C4=O)c3)nc(=O)c2c(C)c1OC [Example 262]")
"230 to 230.5 °C"

Memo: COc1cc2[nH]c(N(C)Cc3cccc(N(C)S(=O)(=O)N(C)C)c3)nc(=O)c2c(OC)c1OC [Example 172] , reported melting point: 170.3 to 172.3 °C

Value of measured melting point for the entry COc1cc2[nH]c(N(C)Cc3cccc(/N=C(\C)N(C)C)c3)nc(=O)c2c(C)c1OC [Example 167] : 174.4 to 174.8 °C

Documented melting point of COc1cc2[nH]c(N(C)Cc3cccc(NCCO)c3)nc(=O)c2c(OC)c1OC [Example G-16] : 60.5 to 61.4 °C

Reported melting point ( COc1cc2[nH]c(N(C)Cc3cccc(NC4=NCCC4)c3)nc(=O)c2c(C)c1OC [Example G-42] ) = 175.4 to 177.2 °C

# melting point (molecule: COCCNc1cccc(CN(C)c2nc(=O)c3c(OC)c(OC)c(OC)cc3[nH]2)c1 [Example G-19] ) is 178.9 to 179.9 °C
